System: ZIKV replicon
protocol_notes: ZIKV replication inhibition assay (NanoLuc replicon in Vero cells)
test_parameters: Zika virus, Vero, 72 h, read-out: ZIKA Cell_Nanoluc, Vero cells with stable ZIKV replicon, 72 h, Nano-Glo readout
measured_metric: EC50

get_value(item= O=C([N-]c1c[n+](Cc2ccccn2)no1)Nc1cc(NC(=O)C2CCCc3cn[nH]c32)cc(C(F)(F)F)c1 (centres unmarked) [Example 38] , readout=EC50) returns 1000 to 20000 nM

get_value(item= Cc1ncccc1-c1ccc(C[n+]2cc([N-]C(=O)Nc3ccnc(C(F)(F)F)c3)on2)cc1 [Example 258] , readout=EC50) returns < 100 nM

get_value(item= COc1ncc(-c2ccc(C[n+]3cc([N-]C(=O)Nc4cc(NC(=O)Cc5ccccc5)cc(C(F)(F)F)c4)on3)cc2)c(C)n1 [Example 1] , readout=EC50) returns 1000 to 20000 nM

get_value(item= Cc1nc(-c2ccc(C[n+]3cc([N-]C(=O)Nc4ccnc(C(F)(F)F)c4)on3)cc2)c(C)s1 [Example 259] , readout=EC50) returns < 100 nM

get_value(item= Cc1ccccc1CC(=O)Nc1cc(NC(=O)[N-]c2c[n+]([C@H]3CCC[C@@H](CN(C)C)C3)no2)cc(C(F)(F)F)c1 (stereo in doubt) [Example 246] , readout=EC50) returns 1000 to 20000 nM

get_value(item= O=C(Cc1cc(NC(=O)[N-]c2c[n+](Cc3ccccn3)no2)cc(C(F)(F)F)c1)NCc1ccccc1 [Example 90] , readout=EC50) returns 1000 to 20000 nM

get_value(item= O=C(Cc1ccccc1)Nc1cc(NC(=O)[N-]c2c[n+](C3CCNCC3)no2)cc(C(F)(F)F)c1 [Example 99] , readout=EC50) returns 1000 to 20000 nM

get_value(item= O=C(Cc1ccccc1)Nc1cc(NC(=O)[N-]c2c[n+](Cc3ccc(CO)cc3)no2)cc(C(F)(F)F)c1 [Example 102] , readout=EC50) returns 1000 to 20000 nM

get_value(item= Cc1ccccc1CC(=O)Nc1cc(NC(=O)[N-]c2c[n+]([C@@H]3CCCC[C@@H]3N(C)C)no2)cc(C(F)(F)F)c1 (racemic) [Example 244] , readout=EC50) returns 1000 to 20000 nM

get_value(item= COc1ccc(NC(=O)[N-]c2c[n+](Cc3ccc(-c4c(C)ncnc4C)cc3)no2)cc1C(F)(F)F [Example 249] , readout=EC50) returns < 100 nM

get_value(item= Cc1noc(C)c1-c1ccc([C@H](CN)[n+]2cc([N-]C(=O)Nc3cc(NC(=O)Cc4ccccc4)cc(C(F)(F)F)c3)on2)cc1 [Example 23] , readout=EC50) returns 1000 to 20000 nM

get_value(item= C[C@@H]1C[C@H]1c1cc(NC(=O)Cc2ccccc2)cc(NC(=O)[N-]c2c[n+](Cc3ccccn3)no2)c1 [Example 130] , readout=EC50) returns 1000 to 20000 nM

get_value(item= NCc1cccc(C[n+]2cc([N-]C(=O)Nc3cc(NC(=O)Cc4ccccc4)cc(C(F)(F)F)c3)on2)c1 [Example 108] , readout=EC50) returns 1000 to 20000 nM

get_value(item= C[n+]1cc([N-]C(=O)Nc2cc(NC(=O)Cc3ccccc3)cc(C(F)(F)F)c2)on1 [Example 4] , readout=EC50) returns 1000 to 20000 nM
